Parameter IC50, tested on Cytochrome P450 3A4 (Homo sapiens, UniProt P08684), listed per item.
Sequence (P08684 whole entry): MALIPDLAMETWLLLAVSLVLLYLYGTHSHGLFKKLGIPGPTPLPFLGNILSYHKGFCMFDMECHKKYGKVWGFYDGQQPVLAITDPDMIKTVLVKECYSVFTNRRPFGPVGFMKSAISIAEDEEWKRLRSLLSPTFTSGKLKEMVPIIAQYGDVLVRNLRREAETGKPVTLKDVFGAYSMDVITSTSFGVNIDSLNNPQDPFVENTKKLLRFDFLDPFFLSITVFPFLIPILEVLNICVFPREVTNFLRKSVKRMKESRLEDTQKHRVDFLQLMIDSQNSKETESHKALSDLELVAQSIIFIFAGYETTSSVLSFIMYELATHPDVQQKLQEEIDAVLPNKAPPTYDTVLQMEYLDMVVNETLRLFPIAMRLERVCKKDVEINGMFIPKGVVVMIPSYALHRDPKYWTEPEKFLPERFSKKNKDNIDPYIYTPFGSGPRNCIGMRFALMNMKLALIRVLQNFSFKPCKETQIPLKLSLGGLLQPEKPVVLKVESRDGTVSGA
Give bare numbers, in nM.

Solved cases (3 shown):
{"test_smiles": "CC(C)c1nc(CN(C)C(=O)N[C@H](C(=O)N[C@H](/C=C/[C@H](Cc2ccccc2)NC(=O)OCc2cncs2)Cc2ccccc2)C(C)C)cs1", "study_target": "Cytochrome P450 3A4 (Homo sapiens, UniProt P08684)", "IC50 / nM": 150}
{"test_smiles": "CC(C)c1nc(CN(C)C(=O)N[C@H](C(=O)N[C@H](CCN(Cc2ccccc2)C(=O)OCc2cncs2)Cc2ccccc2)C(C)C)cs1", "study_target": "Cytochrome P450 3A4 (Homo sapiens, UniProt P08684)", "IC50 / nM": 320}
{"test_smiles": "CC(C)c1nc(CN(C)C(=O)N[C@H](C(=O)N2CCN(C(=O)OCc3cncs3)CC2)C(C)C)cs1", "study_target": "Cytochrome P450 3A4 (Homo sapiens, UniProt P08684)", "IC50 / nM": 1400}

Look up IC50 with Cytochrome P450 3A4 (Homo sapiens, UniProt P08684) for this compound: `CC(C)c1nc(CN(C)C(=O)N[C@H](C(=O)NC2CCN(C(=O)OCc3cncs3)CC2)C(C)C)cs1`
1670

---

# study_target: Cytochrome P450 2D6 (Homo sapiens)
# Sequence (P10635 whole entry): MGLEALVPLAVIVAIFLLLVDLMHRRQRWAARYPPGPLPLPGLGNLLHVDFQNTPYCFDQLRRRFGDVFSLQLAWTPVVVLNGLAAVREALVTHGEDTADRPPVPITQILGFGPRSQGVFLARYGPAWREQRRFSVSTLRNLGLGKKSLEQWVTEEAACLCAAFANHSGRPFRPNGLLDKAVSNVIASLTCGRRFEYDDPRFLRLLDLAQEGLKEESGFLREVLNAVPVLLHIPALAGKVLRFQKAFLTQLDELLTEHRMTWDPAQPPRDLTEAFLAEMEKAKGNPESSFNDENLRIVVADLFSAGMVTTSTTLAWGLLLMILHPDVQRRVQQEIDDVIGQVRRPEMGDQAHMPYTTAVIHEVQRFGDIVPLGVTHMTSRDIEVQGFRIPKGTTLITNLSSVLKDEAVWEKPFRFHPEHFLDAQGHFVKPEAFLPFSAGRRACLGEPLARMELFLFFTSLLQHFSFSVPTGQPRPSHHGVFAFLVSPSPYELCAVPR
observed_property: IC50
Quick note: number first, unit second.

Missing value: IC50, Cytochrome P450 2D6 (Homo sapiens), entry `CC(C)c1nc(CN(C)C(=O)N[C@H](C(=O)N[C@H](CCN(Cc2ccccc2)C(=O)OCc2cncs2)Cc2ccccc2)C(C)C)cs1` . Fill in?
900 nM

---

Entries with reported pIC50 on Cytochrome P450 2C19 (Homo sapiens, UniProt P33261)
Sequence (P33261 whole entry): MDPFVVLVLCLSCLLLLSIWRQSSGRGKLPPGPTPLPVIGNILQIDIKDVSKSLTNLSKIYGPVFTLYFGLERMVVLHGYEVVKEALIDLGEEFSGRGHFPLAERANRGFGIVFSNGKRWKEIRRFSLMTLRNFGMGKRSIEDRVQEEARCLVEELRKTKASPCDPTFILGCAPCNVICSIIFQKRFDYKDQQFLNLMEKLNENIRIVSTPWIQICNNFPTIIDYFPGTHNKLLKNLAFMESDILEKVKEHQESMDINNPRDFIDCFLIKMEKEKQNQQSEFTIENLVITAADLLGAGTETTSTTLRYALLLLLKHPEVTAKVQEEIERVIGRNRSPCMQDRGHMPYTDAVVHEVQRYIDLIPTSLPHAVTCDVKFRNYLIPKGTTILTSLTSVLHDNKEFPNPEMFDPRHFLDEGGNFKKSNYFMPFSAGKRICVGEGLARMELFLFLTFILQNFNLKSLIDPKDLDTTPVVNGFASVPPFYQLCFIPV
Numbers only, as −log10 of the molar value.

{"test_smiles": "CC(C)c1nc(CN(C)C(=O)N[C@@H](CCN2CCOCC2)C(=O)N[C@H](CCN(Cc2ccccc2)C(=O)OCc2cncs2)Cc2ccccc2)cs1", "study_target": "Cytochrome P450 2C19 (Homo sapiens, UniProt P33261)", "pIC50": 5.17}
{"test_smiles": "CC(C)c1nc(CN(C)C(=O)N[C@H](C(=O)N[C@@H](Cc2ccccc2)[C@H](Cc2ccccc2)NC(=O)OCc2cncs2)C(C)C)cs1", "study_target": "Cytochrome P450 2C19 (Homo sapiens, UniProt P33261)", "pIC50": 5.06}

For `CC(C)c1nc(CN(C)C(=O)N[C@H](C(=O)N(CCCCN(Cc2ccccc2)C(=O)OCc2cncs2)Cc2ccccc2)C(C)C)cs1` , what is its reported pIC50?
5.82

---

# study_target: Cytochrome P450 2C9 (Homo sapiens)
# Sequence (P11712 whole entry): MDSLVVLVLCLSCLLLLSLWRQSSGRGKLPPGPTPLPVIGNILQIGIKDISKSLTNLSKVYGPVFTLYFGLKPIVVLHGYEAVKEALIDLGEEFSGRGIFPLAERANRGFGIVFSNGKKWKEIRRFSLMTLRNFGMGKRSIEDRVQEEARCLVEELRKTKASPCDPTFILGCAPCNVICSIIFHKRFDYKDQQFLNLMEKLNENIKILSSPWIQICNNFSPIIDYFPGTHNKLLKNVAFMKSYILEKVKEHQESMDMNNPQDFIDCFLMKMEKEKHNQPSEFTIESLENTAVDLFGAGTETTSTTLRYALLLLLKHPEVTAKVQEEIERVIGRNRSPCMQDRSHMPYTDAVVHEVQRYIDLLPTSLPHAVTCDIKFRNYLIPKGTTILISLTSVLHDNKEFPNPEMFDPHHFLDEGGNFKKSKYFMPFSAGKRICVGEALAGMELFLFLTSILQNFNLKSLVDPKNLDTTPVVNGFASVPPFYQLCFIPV
Answer each item with its documented pIC50.
Give bare numbers, as −log10 of the molar value.

{"test_smiles": "CC(C)c1nc(CN(C)C(=O)N[C@H](C(=O)N[C@@H](CC[C@@H](Cc2ccccc2)NC(=O)OCc2cncs2)Cc2ccccc2)C(C)C)cs1", "pIC50": 4.86}

Read the next record carefully.
Field request: pIC50 | item: `CC(C)c1nc(CN(C)C(=O)N[C@H](C(=O)N(CCCCN(Cc2ccccc2)C(=O)OCc2cncs2)Cc2ccccc2)C(C)C)cs1`
5.47

---

Reported pIC50 values, UniProtKB P11712.
pIC50: −log10 of the molar value.

# example entries with known answers
{"test_smiles": "CC(C)CN(CC[C@H](Cc1ccccc1)NC(=O)OCc1cncs1)C(=O)[C@H](CCN1CCOCC1)NC(=O)N(C)Cc1csc(C(C)C)n1", "value": "< 4.60"}
{"test_smiles": "CC(C)c1nc(CN(C)C(=O)N[C@H](C(=O)N[C@@H](Cc2ccccc2)[C@H](Cc2ccccc2)NC(=O)OCc2cncs2)C(C)C)cs1", "value": "< 4.60"}

Moving on to the next compound.
Sample `CC(C)c1nc(CN(C)C(=O)N[C@H](C(=O)N[C@H](CCN(Cc2ccccc2)C(=O)OCc2cncs2)Cc2ccccc2)C(C)C)cs1` — what was its pIC50?
< 4.60
